- Tested on: HL-60
- method_notes: Cytotoxicity against human HL60 cells assessed as growth inhibition after 48 hrs by CCK-8 assay
- Type: functional, cell-based
- experimental_parameters: HL-60, 48 h
pIC50: −log10 of the molar value.
assay_endpoint: pIC50

query_smiles: COc1cc([C@@H]2c3cc4c(cc3[C@@H](n3cc(COC(=O)NC5CCCC5)nn3)[C@H]3COC(=O)[C@H]23)OCO4)cc(OC)c1O
result: > 8.00
//
query_smiles: COc1cc([C@@H]2c3cc4c(cc3[C@@H](n3cc(COC(=O)N5CCN(C6CCCC6)CC5)nn3)[C@H]3COC(=O)[C@H]23)OCO4)cc(OC)c1OC
result: > 8.00
//
query_smiles: COc1cc([C@@H]2c3cc4c(cc3[C@@H](n3cc(COC(=O)N5CCN(c6ccc(F)cc6)CC5)nn3)[C@H]3COC(=O)[C@H]23)OCO4)cc(OC)c1OC
result: > 8.00
